# Lookup of reported cytotoxicity at 10 µM keyed by entry
- TEST DESCRIPTION: Toxicity liver stage against HepG2, at 10uM
- Format: cell-based
- Parameters: test concentration 10 uM, cell line HepG2-A16-CD81EGFP
- STUDY CONDITIONS: human, HepG2-A16-CD81EGFP cells; read-out: INHIBITION
Kindly provide the numeric value in % only, without the unit symbol.

c1ccc(CNCC2Cn3nnc(-c4ccncc4)c3CO2)nc1 (configuration not stated)    -1.99
Cc1cccc(CS(=O)(=O)Cc2ccn(C)c(=O)c2)c1    2.29

The reported value for CC(C)(C#N)c1ccccc1CN(CCO)Cc1ccsc1 in terms of cytotoxicity at 10 µM is 20

The reported value for COc1coc(C(=O)Nc2nc(-c3ccncc3)cs2)cc1=O in terms of cytotoxicity at 10 µM is -7.97

The reported value for CC(NC(=O)c1ccc(Cl)cc1)c1nnc(SCC(N)=O)n1C (configuration not stated) in terms of cytotoxicity at 10 µM is 6.27

The reported value for Cc1nc(C)c2c(n1)CCN(C(=O)C1(C#N)CC1)CC2 in terms of cytotoxicity at 10 µM is -102

The reported value for COc1nc2c(cc1C(=O)N1CCCCC1c1ccccn1)CCC2 (configuration not stated) in terms of cytotoxicity at 10 µM is -12.5

The reported value for CCC(=O)Nc1nnc(CCOc2ccccc2)s1 in terms of cytotoxicity at 10 µM is 7.16

The reported value for Cn1ccnc1C(O)(CCNCc1ccc(Cl)o1)C(F)(F)F (configuration not stated) in terms of cytotoxicity at 10 µM is 4.91

The reported value for N#Cc1ccc(S(=O)(=O)NC(=O)c2csc(-c3ccco3)n2)cc1 in terms of cytotoxicity at 10 µM is -8.17

The reported value for Cc1cnn(CC2CCCCN2CC(=O)Nc2nncs2)c1 (configuration not stated) in terms of cytotoxicity at 10 µM is -0.208

The reported value for CCC[C@H]1CN(S(C)(=O)=O)C[C@@H]1NC(=O)CCOCC in terms of cytotoxicity at 10 µM is 0.224

###

# Lookup of reported cytotoxicity at 10 µM keyed by entry
- TEST DESCRIPTION: Toxicity liver stage against HepG2, at 10uM
- Format: cell-based
- Parameters: test concentration 10 uM, cell line HepG2-A16-CD81EGFP
- STUDY CONDITIONS: human, HepG2-A16-CD81EGFP cells; read-out: INHIBITION
Kindly provide the numeric value in % only, without the unit symbol.

Cc1ccc(C(=O)N2CCN(Cc3cccs3)CC2)c(=O)[nH]1    -8.39

The reported value for CC(C)Cc1cc(CNc2nc(-c3cccnc3)nc3c2CNC3)no1 in terms of cytotoxicity at 10 µM is 1.95

The reported value for Cc1cccnc1CN1CCC2(CC(Nc3ccncn3)C2)C1 (centres undefined) in terms of cytotoxicity at 10 µM is -6.36

The reported value for CC(C)n1nc2c(cc1=O)CN(Cc1nc(-c3ccco3)no1)CC2 in terms of cytotoxicity at 10 µM is 2.35

The reported value for Cn1cc(C(=O)N2CCC(c3ncc[nH]3)CC2)cn1 in terms of cytotoxicity at 10 µM is -5.42

The reported value for O=C(CCCSc1ccc(NC(=O)C2CC2)nn1)NCC1CCCO1 (centres undefined) in terms of cytotoxicity at 10 µM is -4.45

The reported value for Cc1ccccc1CN1C[C@@H]2OCC(=O)N(CC(N)=O)[C@@H]2C1 in terms of cytotoxicity at 10 µM is -4.87

The reported value for CC(C)(C)NC(=O)NC(=O)CNc1c(F)cccc1N1CCCC1 in terms of cytotoxicity at 10 µM is 12.2

The reported value for Cc1nc(C)c(C(=O)Nc2cnn(CC(=O)NC3CCCC3)c2)s1 in terms of cytotoxicity at 10 µM is -3.33

The reported value for CS(=O)(=O)N1CCCC12CCCN(C(=O)c1ccnnc1)C2 (centres undefined) in terms of cytotoxicity at 10 µM is -143

The reported value for O=C(NCC1CCS(=O)(=O)C1)c1sccc1-c1ccc(F)cc1 (centres undefined) in terms of cytotoxicity at 10 µM is -1.79

The reported value for COc1ccccc1CC1CCCN(CC(=O)N2CCOCC2)C1 (centres undefined) in terms of cytotoxicity at 10 µM is 7.87

###

# Lookup of reported cytotoxicity at 10 µM keyed by entry
- TEST DESCRIPTION: Toxicity liver stage against HepG2, at 10uM
- Type: cell-based
- Parameters: test concentration 10 uM, cell line HepG2-A16-CD81EGFP
- STUDY CONDITIONS: human, HepG2-A16-CD81EGFP cells; read-out: INHIBITION
Kindly provide the numeric value in % only, without the unit symbol.

# annotated cases, reported cytotoxicity at 10 µM shown
CN(C)S(=O)(=O)c1ccc(-c2nc(C#N)c(NC3CC3)o2)o1    -18.4
COc1ccc(NC(C)C(=O)N2CCN(c3ncccn3)CC2)cn1 (centres undefined)    -4.71
CC(C)(CNc1ccc(S(=O)(=O)C(F)F)cc1)N1CCOCC1    26.7

The reported value for CNC(=O)C1CCC(NC(=O)c2cc(C3CC3)n(C(C)(C)C)n2)CC1 (centres undefined) in terms of cytotoxicity at 10 µM is 4.74

The reported value for COCCOc1ccc(NC(=O)N2CCCC2c2cccs2)cn1 (centres undefined) in terms of cytotoxicity at 10 µM is -3.17

The reported value for CC(C)(C)NC(=O)Cn1c(=O)n(Cc2ccco2)c2ncccc21 in terms of cytotoxicity at 10 µM is -6

The reported value for CC(C)CNC(=O)[C@H]1C[C@H]2CN(C(=O)NCCc3ccccc3)C[C@@H]1O2 in terms of cytotoxicity at 10 µM is 1.22

The reported value for Cc1ccnn1CC(=O)N(C)Cc1cnn(-c2ccccc2)c1 in terms of cytotoxicity at 10 µM is 9

The reported value for Cc1ccc(S(=O)(=O)Nc2ccc(C)c(C(=O)O)c2)s1 in terms of cytotoxicity at 10 µM is -1.51

The reported value for CC(c1ccc(C(F)(F)F)cc1)N1CCN(CCS(C)(=O)=O)CC1 (centres undefined) in terms of cytotoxicity at 10 µM is 3.25

###

- TEST DESCRIPTION: Toxicity liver stage against HepG2, at 10uM
- Type: cell-based
- Parameters: test concentration 10 uM, cell line HepG2-A16-CD81EGFP
- STUDY CONDITIONS: human, HepG2-A16-CD81EGFP cells; read-out: INHIBITION
READOUT: cytotoxicity at 10 µM (%)
Kindly provide the numeric value in % only, without the unit symbol.

CC(C)c1cc(C(=O)NCC2CCCN(C(C)C)C2)n(C)n1 (configuration not stated)    -1.75
CN(C)C(=O)c1cc2c(nc1NCC1CC1)CCN(CC1CC1)CC2    7.54
O=C(Nc1c(N2CCCC2)cccc1N1CCCC1)c1cnsn1    -43
c1nc(N2CCCC(Cn3cncn3)C2)c2ccsc2n1 (configuration not stated)    5.68
Cn1ncnc1CNC1CCCc2cc(F)ccc21 (configuration not stated)    -5.62

The reported value for CCCc1n[nH]c(C2CN(C(=O)c3ccc4c(c3)COC4)CCO2)n1 (configuration not stated) in terms of cytotoxicity at 10 µM is -12.4

The reported value for CS(=O)(=O)N1CCCC(C(=O)N2CCOc3ccccc32)C1 (configuration not stated) in terms of cytotoxicity at 10 µM is 0.421

The reported value for Cc1ccc(Nc2nccc(C3CN(C(C)C)C3)n2)nc1 in terms of cytotoxicity at 10 µM is -26.2

The reported value for CC(C)CCN1C2(CCN(C(=O)N(C)C)C2)c2ccccc2S1(=O)=O (configuration not stated) in terms of cytotoxicity at 10 µM is 2.11

The reported value for Cc1ccc(C)c(OCc2nnc(SCC3CCCN(C)C3)o2)c1 (configuration not stated) in terms of cytotoxicity at 10 µM is 5.24

The reported value for O=C(c1cccnc1)N1CCCC1C1CCN(Cc2ccccc2)CC1 (configuration not stated) in terms of cytotoxicity at 10 µM is -3.24

The reported value for COCCCN(Cc1ccccn1)S(=O)(=O)N(C)C in terms of cytotoxicity at 10 µM is 12

###

# Lookup of reported cytotoxicity at 10 µM keyed by entry
- TEST DESCRIPTION: Toxicity liver stage against HepG2, at 10uM
- Assay type: cell-based
- Set-up: test concentration 10 uM, cell line HepG2-A16-CD81EGFP
- STUDY CONDITIONS: human, HepG2-A16-CD81EGFP cells; read-out: INHIBITION
Kindly provide the numeric value in % only, without the unit symbol.

# annotated cases, reported cytotoxicity at 10 µM shown
Brc1ccc(-c2nnc(CN(Cc3cccs3)CC3CCCO3)o2)s1 (stereo not drawn)    23.2
COCc1ncc(CN2CCC3(CCNC(=O)CC3)CC2)cn1    -147
O=C(NCc1cccs1)[C@]12COC[C@H]1CN(c1ncccn1)C2    11.6
Cc1cc(C)n(CC2CN(Cc3nc(C4CC4)no3)CCO2)n1 (stereo not drawn)    -5.13
O=C(Nc1ccc(-c2ccccc2)cc1)N1C[C@@H]2CNC[C@]2(C(=O)O)C1    -44.7

The reported value for O=C1C(NS(=O)(=O)c2ccc(F)c(F)c2)CCN1Cc1ccccc1 (stereo not drawn) in terms of cytotoxicity at 10 µM is -2.81

The reported value for O=C(N1CCOCC1)[C@@]12CCO[C@@H]1CCN(C1CCOCC1)C2 in terms of cytotoxicity at 10 µM is 5.83

The reported value for O=C1CO[C@@H]2CN(C3CCOCC3)C[C@H]2N1Cc1cccc(F)c1 in terms of cytotoxicity at 10 µM is -77

The reported value for O=C(Cc1cccs1)Nc1cnn(C2CCOCC2)c1 in terms of cytotoxicity at 10 µM is -0.779

The reported value for COCCc1noc(CN2CCCCC2Cn2cc(C)cn2)n1 (stereo not drawn) in terms of cytotoxicity at 10 µM is -8.54

The reported value for CCc1nc(NC(=O)NCCc2cccc(C)n2)nn1C in terms of cytotoxicity at 10 µM is 2.48
